assay_protocol: Tested for acute toxicity which is the single dose given intraperitoneally that will kill one-half of the mice within 5 days
Format: organism-based
condition_parameters: mouse, in vivo, ip
quantity_name: log10 LD50 at 120 h (log10 of the value in mg/kg)
Field: value | Transform: log10 | Quantity: LD50 at 120 h | Unit: mg/kg

Worked examples follow.
1) CCCOC1=C(Cl)C(=O)c2ccccc2C1=O | 1.30
2) COC1=CC(=O)c2ccccc2C1=O | 2.51
3) CC(=O)NC1=C(Cl)C(=O)c2ccccc2C1=O | 1.04
4) O=C1C=C(O)C(=O)c2ccccc21 | 2.00
5) NC1=C(Cl)C(=O)c2ccccc2C1=O | 2.90

[Q] Fill in: log10 LD50 at 120 h of O=C1C=CC(=O)c2ccccc21 is ___
[A] 0.74

[Q] Would you kindly repeat that for O=C1C(Cl)=C(Nc2ccccc2)C(=O)c2ccccc21 ?
[A] 3.20

----------
assay_protocol: Partition coefficient (logP)
Type: physicochemical
condition_parameters: octanol/water; read-out: logP
With a cut-off of 2, any logP strictly below it is called 1 (yes); any logP meeting it or above is called 0 (no).

Some entries whose results are on file:
1. CC1=CC(=O)c2ccccc2C1=O | 0 (no)
2. COC1=CC(=O)c2ccccc2C1=O | 1 (yes)
3. O=C1C=CC(=O)c2ccccc21 | 1 (yes)
4. O=C1C=C(O)C(=O)c2ccccc21 | 1 (yes)

[Q] In the record for O=C1C(=O)c2ccccc2C(O)=C1C1CCCC1 , is logP less than 2?
[A] 0 (no)

[Q] Would you kindly repeat that for CCOC1=C(Cl)C(=O)c2ccccc2C1=O ?
[A] 0 (no)

----------
assay_protocol: Partition coefficient (logP)
Type: physicochemical
condition_parameters: octanol/water; read-out: logP
Recorded logP by entry
The answer should be written as a number, with no unit following it.

Worked examples follow.
1. O=C1C(Cl)=C(Cl)C(=O)c2ccccc21 | 3.16
2. CC(=O)NC1=C(Cl)C(=O)c2ccccc2C1=O | 1.42
3. CCCOC1=C(Cl)C(=O)c2ccccc2C1=O | 2.95
4. NC1=C(Cl)C(=O)c2ccccc2C1=O | 2.08

Alright, here's another compound for you.
[Q] Fill in: logP of COC1=C(Cl)C(=O)c2ccccc2C1=O is ___
[A] 2.15

----------
assay_protocol: Solubility in water was determined
Type: physicochemical
quantity_name: solubility (µg/mL)
A number alone suffices; assume µg/mL.

Worked examples follow.
1) NC1=C(Cl)C(=O)c2ccccc2C1=O | 37.7
2) O=C1C=CC(=O)c2ccccc21 [NAPHTHOQUINONE] | 89.4
3) O=C1C=C(O)C(=O)c2ccccc21 [LAWSONE] | 255
4) CCOC1=C(Cl)C(=O)c2ccccc2C1=O | 34.1
5) CC(=O)NC1=C(Cl)C(=O)c2ccccc2C1=O | 106

[Q] Fill in: solubility of O=C1C(=O)c2ccccc2C(O)=C1C1CCCC1 is ___
[A] 9.5

[Q] Would you kindly repeat that for O=C1C(Cl)=C(Nc2ccccc2)C(=O)c2ccccc21 ?
[A] 2.4

[Q] Would you kindly repeat that for COC1=CC(=O)c2ccccc2C1=O [2-Methoxy-1,4-naphthoquinone] ?
[A] 31.3

[Q] Would you kindly repeat that for COC1=C(Cl)C(=O)c2ccccc2C1=O ?
[A] 39.3

[Q] Would you kindly repeat that for CC1=CC(=O)c2ccccc2C1=O [MENADIONE] ?
[A] 10.6

Measured values drawn from ChEMBL document CHEMBL1122365 for this set.
